# k*app (second order rate constant) values compiled below
systemName: EGVD/AE-ACT
procedureText: reaction of the protease with the serpin bait EGVD/AE-ACT
Number, no unit, nothing else.

Examples with their reported k*app (second order rate constant) follow.
binder	reportedMeasurement
chymase C22S/F41V/L99W/G151L/F173K/R217S/A226R (enzyme) IIGGTESKPHSRPYMAYLEIVTSNGPSKVCGGFLIRRNFVLTAAHCAGRSITVTLGAHNITEEEDTWQKLEVIKQFRHPKYNTSTWHHDIMLLKLKEKASLTLAVGTLPFPSQFNFVPPGRMCRVAGWGRTGVLKPLSDTLQEVKLRLMDPQACSHKRDFDHNLQLCVGNPRKTKSAFKGDSGGPLLCAGVAQGIVSYGSSDAKPPRVFTRISHYRPWINQILQAN	1360
chymase C22S/F41R/L99H/G151T/F173Y/Y215K/R217M/A226R (enzyme) IIGGTESKPHSRPYMAYLEIVTSNGPSKRCGGFLIRRNFVLTAAHCAGRSITVTLGAHNITEEEDTWQKLEVIKQFRHPKYNTSTHHHDIMLLKLKEKASLTLAVGTLPFPSQFNFVPPGRMCRVAGWGRTGVLKPTSDTLQEVKLRLMDPQACSHYRDFDHNLQLCVGNPRKTKSAFKGDSGGPLLCAGVAQGIVSKGMSDAKPPRVFTRISHYRPWINQILQAN	1500
chymase C22S/A226R (enzyme) IIGGTESKPHSRPYMAYLEIVTSNGPSKFCGGFLIRRNFVLTAAHCAGRSITVTLGAHNITEEEDTWQKLEVIKQFRHPKYNTSTLHHDIMLLKLKEKASLTLAVGTLPFPSQFNFVPPGRMCRVAGWGRTGVLKPGSDTLQEVKLRLMDPQACSHFRDFDHNLQLCVGNPRKTKSAFKGDSGGPLLCAGVAQGIVSYGRSDAKPPRVFTRISHYRPWINQILQAN	77

**Query** Consider the binder shown here: chymase C22S/F41I/L99W/G151L/F173K/R217S/A226R (enzyme) IIGGTESKPHSRPYMAYLEIVTSNGPSKICGGFLIRRNFVLTAAHCAGRSITVTLGAHNITEEEDTWQKLEVIKQFRHPKYNTSTWHHDIMLLKLKEKASLTLAVGTLPFPSQFNFVPPGRMCRVAGWGRTGVLKPLSDTLQEVKLRLMDPQACSHKRDFDHNLQLCVGNPRKTKSAFKGDSGGPLLCAGVAQGIVSYGSSDAKPPRVFTRISHYRPWINQILQAN What is its recorded k*app (second order rate constant)?
**Result** 1730
